# tested-target: ErbB2 WT (Homo sapiens (Human), UniProt P04626)
# Sequence (P04626 23-1255): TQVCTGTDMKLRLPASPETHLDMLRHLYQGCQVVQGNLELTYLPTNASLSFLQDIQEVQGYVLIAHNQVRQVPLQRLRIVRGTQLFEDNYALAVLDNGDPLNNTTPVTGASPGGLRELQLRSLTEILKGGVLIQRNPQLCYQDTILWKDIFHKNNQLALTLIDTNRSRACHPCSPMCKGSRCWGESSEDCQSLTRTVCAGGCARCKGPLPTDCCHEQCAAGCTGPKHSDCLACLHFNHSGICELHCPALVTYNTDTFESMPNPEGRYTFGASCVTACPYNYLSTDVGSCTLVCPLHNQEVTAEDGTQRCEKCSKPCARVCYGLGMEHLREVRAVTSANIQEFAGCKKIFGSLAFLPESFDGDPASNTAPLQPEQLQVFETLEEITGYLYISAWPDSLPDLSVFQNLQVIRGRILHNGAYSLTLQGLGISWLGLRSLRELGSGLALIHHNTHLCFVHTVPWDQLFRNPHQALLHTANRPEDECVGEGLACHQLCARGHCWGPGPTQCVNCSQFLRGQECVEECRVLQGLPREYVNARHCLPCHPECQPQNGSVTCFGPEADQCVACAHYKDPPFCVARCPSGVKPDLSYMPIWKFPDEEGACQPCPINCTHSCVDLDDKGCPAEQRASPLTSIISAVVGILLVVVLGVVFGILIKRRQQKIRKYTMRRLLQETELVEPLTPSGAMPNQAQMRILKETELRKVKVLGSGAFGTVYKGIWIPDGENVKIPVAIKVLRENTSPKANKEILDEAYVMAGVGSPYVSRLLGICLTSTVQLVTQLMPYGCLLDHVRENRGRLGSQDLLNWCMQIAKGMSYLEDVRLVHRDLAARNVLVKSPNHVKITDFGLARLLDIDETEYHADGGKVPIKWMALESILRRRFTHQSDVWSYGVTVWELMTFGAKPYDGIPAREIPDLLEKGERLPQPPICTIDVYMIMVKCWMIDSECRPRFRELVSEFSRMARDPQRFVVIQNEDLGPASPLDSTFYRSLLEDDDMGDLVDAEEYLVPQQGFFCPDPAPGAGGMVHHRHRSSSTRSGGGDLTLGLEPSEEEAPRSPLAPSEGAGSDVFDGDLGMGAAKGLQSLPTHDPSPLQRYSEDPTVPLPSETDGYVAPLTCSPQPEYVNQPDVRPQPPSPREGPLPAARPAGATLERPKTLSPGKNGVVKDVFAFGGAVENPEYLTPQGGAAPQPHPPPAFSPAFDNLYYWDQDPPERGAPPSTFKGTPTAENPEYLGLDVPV
# protocol-description: ErbB Enzyme Assay (HTRF KinEASE-TK), Assay 2
# Type: biochemical
# recorded-conditions: ErbB2 WT enzyme
attribute-measured: IC50 (nM)

- compound-structure-string: "C=CC(=O)N1CCC(Oc2nc3c(Nc4ccc(Oc5ccc6cn(C)nc6c5)c(Cl)c4F)ncnc3cc2OC)CC1"
  attribute-measured: "IC50"
  measure-unit: "nM"
  numeric-result: 20.3
- compound-structure-string: "C=CC(=O)N1[C@H](C)CN(c2ccc3ncnc(Nc4ccc(Oc5ccc6c(c5)ncn6C)c(C)c4)c3n2)C[C@@H]1C"
  attribute-measured: "IC50"
  measure-unit: "nM"
  numeric-result: 18.5
- compound-structure-string: "C=CC(=O)N1[C@@H]2CC[C@H]1C[C@H](c1ccc3ncnc(Nc4ccc(Oc5ccc6c(c5)ncn6C)c(C)c4F)c3n1)C2"
  attribute-measured: "IC50"
  measure-unit: "nM"
  numeric-result: 59.7
- compound-structure-string: "C=CS(=O)(=O)N(C)c1ccc2ncnc(Nc3ccc(Oc4ccc5c(c4)ncn5C)c(C)c3)c2n1"
  attribute-measured: "IC50"
  measure-unit: "nM"
  numeric-result: 83.2

1. CC#CC(=O)N1CCN(c2ccc3ncnc(Nc4ccc(Oc5ccn6ncnc6c5)c(C)c4F)c3n2)CC12CC2
2. C=CC(=O)N1CCN(c2ccc3ncnc(Nc4ccc(Oc5ccn6ncnc6c5)c(Cl)c4F)c3n2)C[C@@H]1C
Given the listed items, does 1 or 2 have the lesser reported IC50? Lab note: record the label of whichever item you select.
2

---

# tested-target: ErbB2 WT (Homo sapiens (Human), UniProt P04626)
# protocol-description: ErbB Enzyme Assay (HTRF KinEASE-TK), Assay 2
# Format: biochemical
# recorded-conditions: ErbB2 WT enzyme
attribute-measured: IC50 (nM)

- compound: "C=CC(=O)N1CCC(Oc2ccc3ncnc(Nc4ccc(Oc5cnn6c(C)cnc6c5)c(Cl)c4F)c3n2)CC1 [Example 53]"
  measure-unit: "nM"
  IC50: 99.1
- compound: "C=CC(=O)N1CCC(Sc2ccc3ncnc(Nc4ccc(Oc5ccc6c(c5)ncn6C)c(C)c4)c3n2)CC1 [Example 59]"
  measure-unit: "nM"
  IC50: 25.4
- compound: "C=CC(=O)N1CCC(Oc2ccc3ncnc(Nc4ccc(Oc5cnn6c(C)cnc6c5)c(C)c4F)c3n2)CC1 [Example 55]"
  measure-unit: "nM"
  IC50: 2040
- compound: "C=CC(=O)N1CCC(c2nc3c(Nc4ccc(Oc5ccc6c(c5)ncn6C)c(C)c4)ncnc3cc2OC)CC1 [Example 42]"
  measure-unit: "nM"
  IC50: 14.7
- compound: "C=CC(=O)N1CCC(Oc2ccc3ncnc(Nc4ccc(Oc5ccn6ncnc6c5)c(C)c4F)c3n2)CC1 [Example 17]"
  measure-unit: "nM"
  IC50: 48.3
- compound: "C=CC(=O)N1CCC(Oc2ccc3ncnc(Nc4ccc(Oc5ccc6cn(C)nc6c5)c(C)c4)c3n2)CC1 [Example 3]"
  measure-unit: "nM"
  IC50: 260
- compound: "C=CC(=O)N1CCCN(c2ccc3ncnc(Nc4ccc(Oc5cnc6c(c5)ncn6C)c(Cl)c4)c3n2)CC1 [Example 113]"
  measure-unit: "nM"
  IC50: 184
- compound: "C=CC(=O)N1C[C@H](c2ccc3ncnc(Nc4ccc(Oc5ccc6c(c5)ncn6C)c(C)c4F)c3n2)CC[C@H]1C [Example 169]"
  measure-unit: "nM"
  IC50: 111
- compound: "C=CC(=O)N1CCN(c2ccc3ncnc(Nc4ccc(Oc5ccn6ncnc6c5)c(C(F)(F)F)c4)c3n2)CC1(C)C [Example 242]"
  measure-unit: "nM"
  IC50: 184
- compound: "C=C(F)C(=O)N1CCN(c2ccc3ncnc(Nc4ccc(Oc5ccn6ncnc6c5)c(C)c4F)c3n2)CC1 [Example 185]"
  measure-unit: "nM"
  IC50: 128

1. C=CC(=O)N1CCN(c2ccc3ncnc(Nc4ccc(Oc5ccn6ncnc6c5)c(C)c4F)c3n2)CC1(C)C [Example 31]
2. C=CC(=O)N1C[C@@H]2C[C@H]1CN2c1ccc2ncnc(Nc3ccc(Oc4ccn5ncnc5c4)c(C)c3F)c2n1 [Example 95]
Given the listed items, does 1 or 2 have the lesser reported IC50? Lab note: record the label of whichever item you select.
1

A. C=CC(=O)N1C[C@H]2CC[C@@H](C1)[C@@H]2c1ccc2ncnc(Nc3ccc(Oc4ccn5ncnc5c4)c(C)c3)c2n1 [Example 221]
B. C=CC(=O)N1CCN(c2ccc3ncnc(Nc4ccc(Oc5cnc6c(c5)ncn6C)c(Cl)c4)c3n2)CC1(C)C [Example 249]
C. C=CC(=O)N1C[C@H]2C[C@@H]1CN(c1ccc3ncnc(Nc4cc(C)c(Oc5ccc6c(c5)ncn6C)cc4F)c3n1)C2 [Example 119]
D. C=CC(=O)N1CCN(c2ccc3ncnc(Nc4ccc(Oc5ccc6c(c5)ncn6C)c(C)c4)c3n2)CC1(C)C [Example 103]
Sort low-to-high on IC50, please. # answer = labels listed in requested order
D, B, A, C
(D: 2.9 nM, B: 11.8 nM, A: 28.5 nM, C: 60.4 nM)
